Data origin, for the record: the NIST ThermoML archive (doi:10.1021/je800356x)

# Run description: molar heat capacity at constant pressure
# Study conditions: 336.65 K; 101.33 kPa; Liquid; Small sample (50 mg) DSC
Label rule, in plain words: molar heat capacity at constant pressure of 300 J/K/mol and up is 1, under 300 J/K/mol is -1.

Incoming: I'd appreciate it if you could say whether OCCCO has molar heat capacity at constant pressure at least equal to 300 J/K/mol.
Outgoing: -1

Incoming: Again, but for OCCCCCCCCO
Outgoing: 1

Incoming: Another molecule: OCCCCCCCO
Outgoing: 1

Incoming: Here is the next molecule: OCCCCO
Outgoing: -1

---

# Run description: molar heat capacity at constant pressure
# Study conditions: 344.15 K; 101.33 kPa; Liquid; Small sample (50 mg) DSC
Parameter measured: molar heat capacity at constant pressure (J/K/mol)
The reply should be a number in J/K/mol, with the unit left off.

Incoming: Returns the measured molar heat capacity at constant pressure for the input molecule. Input: OCCCCCCCCCO [1,9-nonanediol]
Outgoing: 424.66

Incoming: Try the molecule OCCCCO [1,4-butanediol]
Outgoing: 231.32

Incoming: Do the same for OCCCCCCO [1,6-hexanediol] please
Outgoing: 308.91

Incoming: What about OCCCCCCCCO [1,8-octanediol] ?
Outgoing: 384.65
